Taken from paper PMC3961306.

- targetOrSystem: panel of more than 300 wild-type and mutant kinases (313 kinase panel) (Homo sapiens, UniProt Q9P286)
- Sequence (Q9P286 whole entry, change not shown): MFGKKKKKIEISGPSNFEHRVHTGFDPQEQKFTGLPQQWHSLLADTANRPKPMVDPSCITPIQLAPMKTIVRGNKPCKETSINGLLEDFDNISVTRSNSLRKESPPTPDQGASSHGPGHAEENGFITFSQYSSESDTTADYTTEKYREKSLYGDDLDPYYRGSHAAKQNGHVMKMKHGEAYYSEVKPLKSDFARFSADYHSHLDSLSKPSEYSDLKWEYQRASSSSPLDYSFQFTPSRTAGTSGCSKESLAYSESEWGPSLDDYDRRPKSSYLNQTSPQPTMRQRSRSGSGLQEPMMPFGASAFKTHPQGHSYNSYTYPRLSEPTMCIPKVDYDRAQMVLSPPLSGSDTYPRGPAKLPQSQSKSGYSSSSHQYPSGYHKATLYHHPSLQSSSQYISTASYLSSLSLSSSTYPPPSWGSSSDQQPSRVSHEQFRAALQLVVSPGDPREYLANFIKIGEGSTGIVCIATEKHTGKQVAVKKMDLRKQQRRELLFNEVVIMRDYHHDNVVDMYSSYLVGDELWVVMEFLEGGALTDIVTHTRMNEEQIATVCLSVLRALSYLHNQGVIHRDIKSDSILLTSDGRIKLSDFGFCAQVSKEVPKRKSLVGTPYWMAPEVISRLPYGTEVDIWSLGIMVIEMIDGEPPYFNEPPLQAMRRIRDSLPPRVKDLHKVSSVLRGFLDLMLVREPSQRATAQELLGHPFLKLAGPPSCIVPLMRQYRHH
- procedureDetails: Kinase profiling in a biochemical assay panel (mobility shift assays and ELISA), %-inhibition at 1 μM; selectivity entropy
- conditionLabel: kinase PAK5; 1 μM
Listed here are compounds together with their documented %-inhibition of PAK5.
Response body: numeric value in %, unit text excluded.

Cc1ccc(C(=O)Nc2ccc(CN3CCN(C)CC3)c(C(F)(F)F)c2)cc1C#Cc1cnc2cccnn12 [ponatinib] : -0.481

Reported %-inhibition of PAK5 for CC(C)(C)c1nc(-c2cccc(NS(=O)(=O)c3c(F)cccc3F)c2F)c(-c2ccnc(N)n2)s1 [dabrafenib] was 21

// recorded %-inhibition of PAK5 for Cc1ccc(Nc2nccc(N(C)c3ccc4c(C)n(C)nc4c3)n2)cc1S(N)(=O)=O [pazopanib] : 2
